The origin of these recorded values is ChEMBL document CHEMBL1153852.

Biological target: Aldo-keto reductase family 1 member C3 (Homo sapiens) (UniProt P42330)
Sequence (whole entry): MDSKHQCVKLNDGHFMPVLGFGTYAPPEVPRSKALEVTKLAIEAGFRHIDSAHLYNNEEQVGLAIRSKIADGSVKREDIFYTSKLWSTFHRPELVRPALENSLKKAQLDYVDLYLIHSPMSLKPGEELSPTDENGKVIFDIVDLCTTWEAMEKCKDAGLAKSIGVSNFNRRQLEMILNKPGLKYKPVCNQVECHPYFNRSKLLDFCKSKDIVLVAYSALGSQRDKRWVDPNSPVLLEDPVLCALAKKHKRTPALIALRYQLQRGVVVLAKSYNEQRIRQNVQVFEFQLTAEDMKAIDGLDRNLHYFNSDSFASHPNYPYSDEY
Assay: Inhibition of human 17beta-HSD5 expressed in HEK293 cells assessed as enzyme-mediated transformation of [14C]-4-androstene-3,17-dione in to [14C]-testosterone at 0.3 uM after 18 hrs
Assay type: cell-based
Measured Property: inhibition (%)
Please reply with the bare figure in % and do not write the unit itself.

C[C@]12CC[C@@H]3c4ccc(O)cc4CC[C@H]3[C@@H]1C[C@@H]1CCCC(=O)O[C@@H]12
70
C[C@]12CC[C@@H]3c4ccc(O)cc4CC[C@H]3[C@@H]1CC[C@@]21CCCCC(=O)O1
90
CC1CC[C@@]2(CC[C@H]3[C@@H]4CCc5cc(O)ccc5[C@H]4CC[C@@]32C)OC1=O (mixture of isomers)
93
C[C@]12CC[C@@H]3c4ccc(O)cc4CC[C@H]3[C@@H]1C[C@H]1CCC(=O)O[C@H]12
6
C[C@]12CC[C@@H]3c4ccccc4CC[C@H]3[C@@H]1CC[C@@]21CCCC(=O)O1
93
CC1CC(=O)O[C@]2(CC[C@H]3[C@@H]4CCc5cc(O)ccc5[C@H]4CC[C@@]32C)C1 (mixture of isomers)
88
C[C@]12CC[C@@H]3c4ccc(O)cc4CC[C@H]3[C@@H]1CC[C@@]21CCC(=O)O1
47
CCCC1CC[C@@]2(CC[C@H]3[C@@H]4CCc5cc(O)ccc5[C@H]4CC[C@@]32C)OC1=O (mixture of isomers)
41
C[C@]12CCC(=O)C=C1CC[C@@H]1[C@@H]2CC[C@]2(C)C(=O)CC[C@@H]12
21
C[C@]12CCC(=O)CC1C(=O)C[C@@H]1[C@@H]2CC[C@@]2(C)[C@H]1CC[C@@]21CCC(=O)O1 (stereo partly specified)
14

inhibition for C[C@]12CCC(=O)CC1CC[C@@H]1[C@@H]2CC[C@@]2(C)[C@H]1CC[C@@]21CCC(=O)O1 (stereo partly specified) ?
15

inhibition for C[C@]12CC[C@@H]3c4ccc(O)cc4CC[C@H]3[C@@H]1CC[C@]21CCC(=O)O1 ?
22

inhibition for C[C@]12CC[C@@H]3c4ccc(O)cc4CC[C@H]3[C@@H]1CC[C@@]21CCC(O)O1 (mixture of isomers) ?
19

inhibition for C[C@]12CC[C@@H]3c4ccc(O)cc4CC[C@H]3[C@@H]1CC[C@@]21CCCC(=O)O1 ?
92

inhibition for CC(=O)S[C@@H]1CC2=CC(=O)CC[C@]2(C)[C@H]2CC[C@@]3(C)[C@@H](CC[C@@]34CCC(=O)O4)[C@H]12 ?
27

inhibition for C[C@]12CC[C@@H]3c4ccc(O)cc4CC[C@H]3[C@@H]1CC[C@@]21CC=CC(=O)O1 ?
79
